- STUDY_TARGET: T1, Human TIGIT protein with HIS tag (human, UniProt Q495A1 22-141)
- T1 construct: A soluble analyte is probably only the extracellular part; also called human TIGIT recombinant protein; not shown: HIS tag
- T1 sequence: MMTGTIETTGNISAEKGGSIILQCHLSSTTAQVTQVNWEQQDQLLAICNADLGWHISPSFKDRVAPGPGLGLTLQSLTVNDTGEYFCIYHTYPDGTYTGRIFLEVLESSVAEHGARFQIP
- TEST_DETAILS: SPR Biacore T200; antibody Fc-captured, TIGIT-His analyte
- Method: Binding kinetics of mouse anti-human TIGIT monoclonal antibodies to human TIGIT were determined using a Surface Plasmon Resonance (SPR) biosensor, BIACORE® T200 (GE Healthcare; Little Chalfont, United Kingdom). […] Each mouse anti-human TIGIT monoclonal antibody was immobilized on the sensor chip through the Fc capture method. Human TIGIT protein with HIS tag was used as the analyte. […] The apparent equilibrium dissociation constants (KD) were calculated from the ratio of kd over kₐ.
PROPERTY_NAME: Kd (nM)

- 92E9D4B4 (antibody, V domains shown, Mouse monoclonal antibody; also called mouse anti-human TIGIT monoclonal antibody 92E9D4B4) VH: EVMLVESGGGLVKPGGSLKLSCAASGFTFSFYTMSWVRQTPEKRLEWVATISGGGGDTYYPDNVKGRFTISRDNAKNNLYLQMSSLRSEDTALYYCARSLPVDFWGQGTTLTVSS VL: QIVLTQSPAIMSASLGERVTMTCTASSSVSSTYLHWYQQKPGSSPKFWIYSTSNMASGVPARFSGSGSGTSYSLTISSMEAEDAATYYCHYYHRSPYTFGGGTKLEIK: 0.57
- 8F2D8E7 (antibody, V domains shown, Mouse monoclonal antibody; also called mouse anti-human TIGIT monoclonal antibody 8F2D8E7) VH: QVQLQQSGAELVKPGASVKLSCKTSGYTFTSYWIQWIKQRPGQGLGWIGEIFPGTGTTYYNEKFKGKATLTIDTSSSTAYMQLSSLTSEDSAVYSCARSRDGKVVDYWGQGTSVTVSS VL: DVQMTQTTSSLSASLGDRVTISCRASQDISNFLNWYQQRPDGTVKLLIYYTSKLHSGVPSRFSGSGSGTDYSLTIRNLEKEDIATYFCQQGNTPPYTFGGGTKLEIK: 2.6
- 11D8E12A4 (antibody, V domains shown, Mouse monoclonal antibody; also called mouse anti-human TIGIT monoclonal antibody 11D8E12A4) VH: EVLLQQSGPELVKPGASVKIPCKASGYTFTDYNMDWVKQSHGKSLEWIGDINPNNGGTIYNQKFKGKATLTVDKSSSTAYMELRSLTSEDTAVYYCARRWLLLVYTMDYWGQGTSVTVSS VL: QIVLTQSPAIMSASPGEKVTISCSASSSVSYMYWYQQKPGSSPKPWIYRTSNLASGVPARFSGSGSGTSYSLTISSMEAEDAATYYCHQYHNYPPTFGGGTKLEIK: 14
